Target: T1, SARS-CoV2 Spike ecto foldon Trimer expressed with a C-terminal myc-myc-hexahistidine (SARS-CoV-2, UniProt P0DTC2 14-1213)
T1 construct: extracellular domain
Experiment: SPR Biacore, mAb captured by anti-hFc, 25C
experimental endpoint: kon

Here's what some known entries look like.
[[record]]
binder = "mAb15160 (antibody, V domains shown) VH: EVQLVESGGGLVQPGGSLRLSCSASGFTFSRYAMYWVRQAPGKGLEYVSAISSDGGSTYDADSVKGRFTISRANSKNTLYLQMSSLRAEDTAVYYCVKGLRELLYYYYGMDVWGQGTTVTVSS VL: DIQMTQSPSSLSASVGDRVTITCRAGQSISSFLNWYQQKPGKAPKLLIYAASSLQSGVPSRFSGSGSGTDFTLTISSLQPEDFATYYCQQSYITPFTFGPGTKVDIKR"
result = "304000 M⁻¹ s⁻¹"

[[record]]
binder = "mAb15164 (antibody, V domains shown) VH: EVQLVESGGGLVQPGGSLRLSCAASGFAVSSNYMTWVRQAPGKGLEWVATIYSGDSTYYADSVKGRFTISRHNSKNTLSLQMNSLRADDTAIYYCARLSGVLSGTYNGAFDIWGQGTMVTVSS VL: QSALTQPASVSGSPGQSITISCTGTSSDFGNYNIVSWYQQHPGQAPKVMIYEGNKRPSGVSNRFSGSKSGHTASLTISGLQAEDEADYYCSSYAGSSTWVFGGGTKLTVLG"
result = "298000 M⁻¹ s⁻¹"

[[record]]
binder = "mAb15163 (antibody, V domains shown) VH: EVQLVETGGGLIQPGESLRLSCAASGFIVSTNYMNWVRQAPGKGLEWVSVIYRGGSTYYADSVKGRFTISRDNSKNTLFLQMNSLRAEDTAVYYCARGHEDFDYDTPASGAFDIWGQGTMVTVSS VL: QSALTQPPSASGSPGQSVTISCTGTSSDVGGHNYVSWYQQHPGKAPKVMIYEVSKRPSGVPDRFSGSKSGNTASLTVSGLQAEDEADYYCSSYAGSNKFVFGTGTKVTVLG"
result = "214000 M⁻¹ s⁻¹"


Request: # lookup: kon of mAb14257 (antibody, V domains shown) VH: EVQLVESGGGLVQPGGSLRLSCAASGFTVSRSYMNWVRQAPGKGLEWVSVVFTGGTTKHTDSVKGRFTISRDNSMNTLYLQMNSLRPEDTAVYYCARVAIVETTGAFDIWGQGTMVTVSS VL: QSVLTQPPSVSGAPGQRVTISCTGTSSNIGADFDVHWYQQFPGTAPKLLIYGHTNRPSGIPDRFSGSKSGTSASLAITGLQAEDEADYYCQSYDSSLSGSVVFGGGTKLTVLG
Result: 2.45e+06 M⁻¹ s⁻¹

Request: Then this binder: mAb13458 (antibody, V domains shown) VH: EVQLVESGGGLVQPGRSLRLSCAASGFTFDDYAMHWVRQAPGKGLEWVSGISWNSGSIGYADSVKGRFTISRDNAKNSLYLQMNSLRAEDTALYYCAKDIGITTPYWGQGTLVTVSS VL: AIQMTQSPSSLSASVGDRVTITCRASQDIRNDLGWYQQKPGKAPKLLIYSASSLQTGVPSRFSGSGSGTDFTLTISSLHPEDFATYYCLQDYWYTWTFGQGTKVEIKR
Result: 1.21e+06 M⁻¹ s⁻¹

Request: Then this binder: mAb14230 (antibody, V domains shown) VH: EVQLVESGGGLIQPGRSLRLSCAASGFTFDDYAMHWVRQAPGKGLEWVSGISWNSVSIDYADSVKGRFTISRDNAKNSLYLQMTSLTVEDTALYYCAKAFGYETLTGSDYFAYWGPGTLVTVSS VL: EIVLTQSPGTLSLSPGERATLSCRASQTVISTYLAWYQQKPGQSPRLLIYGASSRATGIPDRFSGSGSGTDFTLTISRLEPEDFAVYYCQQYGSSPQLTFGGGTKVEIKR
Result: 1.51e+06 M⁻¹ s⁻¹

Request: Then this binder: mAb14247 (antibody, V domains shown) VH: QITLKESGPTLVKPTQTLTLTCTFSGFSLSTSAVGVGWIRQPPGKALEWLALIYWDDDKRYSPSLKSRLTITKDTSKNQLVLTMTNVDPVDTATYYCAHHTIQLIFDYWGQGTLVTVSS VL: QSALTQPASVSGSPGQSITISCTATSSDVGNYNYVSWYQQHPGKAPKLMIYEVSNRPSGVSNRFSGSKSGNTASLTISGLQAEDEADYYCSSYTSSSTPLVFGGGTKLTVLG
Result: 944000 M⁻¹ s⁻¹

Request: Then this binder: mAb15159 (antibody, V domains shown) VH: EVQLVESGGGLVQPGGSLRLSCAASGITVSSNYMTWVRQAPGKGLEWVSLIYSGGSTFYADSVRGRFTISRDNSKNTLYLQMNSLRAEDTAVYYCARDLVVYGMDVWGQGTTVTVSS VL: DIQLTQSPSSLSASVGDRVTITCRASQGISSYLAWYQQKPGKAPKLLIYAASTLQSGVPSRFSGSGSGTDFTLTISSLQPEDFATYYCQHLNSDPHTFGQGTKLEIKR
Result: 87500 M⁻¹ s⁻¹

Request: Then this binder: mAb14258 (antibody, V domains shown) VH: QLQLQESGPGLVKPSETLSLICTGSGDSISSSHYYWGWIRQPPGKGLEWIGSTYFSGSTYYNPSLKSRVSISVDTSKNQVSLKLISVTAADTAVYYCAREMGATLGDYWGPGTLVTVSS VL: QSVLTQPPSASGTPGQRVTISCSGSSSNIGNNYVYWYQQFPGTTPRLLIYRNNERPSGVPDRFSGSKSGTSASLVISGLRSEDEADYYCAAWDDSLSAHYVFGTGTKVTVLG
Result: 2.12e+06 M⁻¹ s⁻¹

Request: Then this binder: mAb14283 (antibody, V domains shown) VH: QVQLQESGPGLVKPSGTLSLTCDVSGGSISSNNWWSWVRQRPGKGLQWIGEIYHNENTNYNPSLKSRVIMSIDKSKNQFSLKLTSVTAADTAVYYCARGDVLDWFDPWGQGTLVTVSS VL: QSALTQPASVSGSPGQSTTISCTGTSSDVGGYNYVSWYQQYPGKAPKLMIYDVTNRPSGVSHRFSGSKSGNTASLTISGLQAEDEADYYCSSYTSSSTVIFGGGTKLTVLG
Result: 1.61e+06 M⁻¹ s⁻¹
